Test system: Streptococcus pneumoniae
method: Antibacterial activity against efflux-mediated macrolide-resistant Streptococcus pneumoniae Ci137 by broth microdilution technique
Type: functional
Consider the following compounds; for each one, report its MIC.

Recorded MIC (compound `CCOC(=O)c1cn(C2CC2)c2ccc(CCCN3CCN(CCC(=O)O[C@H]4[C@H](C)O[C@@H](O[C@H]5[C@H](C)[C@@H](O[C@@H]6O[C@H](C)C[C@H](N(C)C)[C@H]6O)[C@](C)(O)C[C@@H](C)CN(C)[C@H](C)[C@@H](OC)[C@](C)(O)[C@@H](CC)OC(=O)[C@@H]5C)C[C@@]4(C)OC)CC3)cc2c1=O` ): ≤ 0.125 µg/mL

Recorded result, `CCOC(=O)c1cn(CC)c2ccc(CCCN3CCN(CCC(=O)O[C@H]4[C@H](C)O[C@@H](O[C@H]5[C@H](C)[C@@H](O[C@@H]6O[C@H](C)C[C@H](N(C)C)[C@H]6O)[C@](C)(O)C[C@@H](C)CN(C)[C@H](C)[C@@H](O)[C@](C)(O)[C@@H](CC)OC(=O)[C@@H]5C)C[C@@]4(C)OC)CC3)cc2c1=O` , MIC: ≤ 0.125 µg/mL

Form: compound = `CCOC(=O)c1cn(CC)c2ccc(/C=C/CN3CCNCC3)cc2c1=O` ; MIC = > 64 µg/mL

Value of MIC reported for the compound `CCOC(=O)c1cn(CC)c2ccc(C#CCN3CCN(CCC(=O)O[C@H]4[C@H](C)O[C@@H](O[C@H]5[C@H](C)[C@@H](O[C@@H]6O[C@H](C)C[C@H](N(C)C)[C@H]6O)[C@](C)(O)C[C@@H](C)CN(C)[C@H](C)[C@@H](O)[C@](C)(O)[C@@H](CC)OC(=O)[C@@H]5C)C[C@@]4(C)OC)CC3)cc2c1=O` is ≤ 0.125 µg/mL

Memo: `CCOC(=O)c1cn(CC)c2ccc(CCCN3CCN(CCC(=O)O[C@H]4[C@H](C)O[C@@H](O[C@H]5[C@H](C)[C@@H](O[C@@H]6O[C@H](C)C[C@H](N(C)C)[C@H]6O)[C@](C)(O)C[C@@H](C)CN(C)[C@H](C)[C@@H](OC)[C@](C)(O)[C@@H](CC)OC(=O)[C@@H]5C)C[C@@]4(C)OC)CC3)cc2c1=O` , reported MIC: 2 µg/mL

response.value for `CCOC(=O)c1cn(CC)c2ccc(/C=C/CN3CCN(C(=O)OC(C)(C)C)CC3)cc2c1=O` (field: MIC) = > 64 µg/mL

Please fill in: MIC reported for `CCOC(=O)c1cn(C2CC2)c2ccc(C#CCN3CCN(CCC(=O)O[C@H]4[C@H](C)O[C@@H](O[C@H]5[C@H](C)[C@@H](O[C@@H]6O[C@H](C)C[C@H](N(C)C)[C@H]6O)[C@](C)(O)C[C@@H](C)CN(C)[C@H](C)[C@@H](OC)[C@](C)(O)[C@@H](CC)OC(=O)[C@@H]5C)C[C@@]4(C)OC)CC3)cc2c1=O` = ≤ 0.125 µg/mL

In plain terms, `CCOC(=O)c1cn(C2CC2)c2ccc(C#CCN3CCNCC3)cc2c1=O` has a documented MIC of > 64 µg/mL

---

System: Streptococcus pyogenes
method: Antibacterial activity against constitutive macrolide, licosamide and streptogramin-resistant Streptococcus pyogenes 166 GR-Micro by broth microdilution technique
Format: functional
measurement.label: MIC

Test item `CCOC(=O)c1cn(CC)c2ccc(/C=C/CN3CCNCC3)cc2c1=O` ; Streptococcus pyogenes; reported MIC was > 64 µg/mL

Item: `CCOC(=O)c1cn(C2CC2)c2ccc(C#CCN3CCN(CCC(=O)O[C@H]4[C@H](C)O[C@@H](O[C@H]5[C@H](C)[C@@H](O[C@@H]6O[C@H](C)C[C@H](N(C)C)[C@H]6O)[C@](C)(OC)C[C@@H](C)C(=O)[C@H](C)[C@@H](O)[C@](C)(O)[C@@H](CC)OC(=O)[C@@H]5C)C[C@@]4(C)OC)CC3)cc2c1=O` | System: Streptococcus pyogenes | MIC: 16 µg/mL

For the compound `CC[C@H]1OC(=O)[C@H](C)[C@@H](O[C@H]2C[C@@](C)(OC)[C@@H](OC(=O)CCN3CCN(CC#Cc4ccc5c(c4)c(=O)c(C(=O)O)cn5CC)CC3)[C@H](C)O2)[C@H](C)[C@@H](O[C@@H]2O[C@H](C)C[C@H](N(C)C)[C@H]2O)[C@](C)(O)C[C@@H](C)CN(C)[C@H](C)[C@@H](OC)[C@]1(C)O` , the measured MIC on Streptococcus pyogenes was 16 µg/mL

// assay Streptococcus pyogenes, entry `CCOC(=O)c1cn(C2CC2)c2ccc(C#CCN3CCN(C(=O)OC(C)(C)C)CC3)cc2c1=O` , MIC value = > 64 µg/mL

Item: `CCOC(=O)c1cn(CC)c2ccc(C#CCN3CCNCC3)cc2c1=O` | System: Streptococcus pyogenes | MIC: > 64 µg/mL

`CC[C@H]1OC(=O)[C@H](C)[C@@H](O[C@H]2C[C@@](C)(OC)[C@@H](O)[C@H](C)O2)[C@H](C)[C@@H](O[C@@H]2O[C@H](C)C[C@H](N(C)C)[C@H]2O)[C@](C)(O)C[C@@H](C)CN(C)[C@H](C)[C@@H](O)[C@]1(C)O` on Streptococcus pyogenes gives MIC = > 64 µg/mL

---

Tested on: Moraxella catarrhalis
method: Antibacterial activity against Moraxella catarrhalis ATCC 23246 by broth microdilution technique
Assay type: functional
measurement.label: MIC (µg/mL)
Supply the numeric figure in µg/mL, leaving out any unit text.

molecule `CCOC(=O)c1cn(CC)c2ccc(C#CCN3CCN(CCC(=O)O[C@H]4[C@H](C)O[C@@H](O[C@H]5[C@H](C)[C@@H](O[C@@H]6O[C@H](C)C[C@H](N(C)C)[C@H]6O)[C@](C)(O)C[C@@H](C)CN(C)[C@H](C)[C@@H](OC)[C@](C)(O)[C@@H](CC)OC(=O)[C@@H]5C)C[C@@]4(C)OC)CC3)cc2c1=O` , MIC observed: 8

Sure, the documented MIC for `CCOC(=O)c1cn(CC)c2ccc(C#CCN3CCN(CCC(=O)O[C@H]4[C@H](C)O[C@@H](O[C@H]5[C@H](C)[C@@H](O[C@@H]6O[C@H](C)C[C@H](N(C)C)[C@H]6O)[C@](C)(O)C[C@@H](C)CN(C)[C@H](C)[C@@H](O)[C@](C)(O)[C@@H](CC)OC(=O)[C@@H]5C)C[C@@]4(C)OC)CC3)cc2c1=O` is 1

---

System: Moraxella catarrhalis
method: Antibacterial activity against Moraxella catarrhalis ATCC 23246 by broth microdilution technique
Assay type: functional
measurement.label: MIC
The number alone won't do; follow it with the unit.

Per the records, this molecule ( `CCOC(=O)c1cn(C2CC2)c2ccc(CCCN3CCN(CCC(=O)O[C@H]4[C@H](C)O[C@@H](O[C@H]5[C@H](C)[C@@H](O[C@@H]6O[C@H](C)C[C@H](N(C)C)[C@H]6O)[C@](C)(OC)C[C@@H](C)C(=O)[C@H](C)[C@@H](O)[C@](C)(O)[C@@H](CC)OC(=O)[C@@H]5C)C[C@@]4(C)OC)CC3)cc2c1=O` ) has MIC equal to 4 µg/mL

MIC measured on `CC[C@H]1OC(=O)[C@H](C)[C@@H](O[C@H]2C[C@@](C)(OC)[C@@H](OC(=O)CCN3CCN(CC#Cc4ccc5c(c4)c(=O)c(C(=O)O)cn5CC)CC3)[C@H](C)O2)[C@H](C)[C@@H](O[C@@H]2O[C@H](C)C[C@H](N(C)C)[C@H]2O)[C@](C)(O)C[C@@H](C)CN(C)[C@H](C)[C@@H](OC)[C@]1(C)O` = 0.5 µg/mL

// sample `CCOC(=O)c1cn(CC)c2ccc(CCCN3CCN(CCC(=O)O[C@H]4[C@H](C)O[C@@H](O[C@H]5[C@H](C)[C@@H](O[C@@H]6O[C@H](C)C[C@H](N(C)C)[C@H]6O)[C@](C)(OC)C[C@@H](C)C(=O)[C@H](C)[C@@H](O)[C@](C)(O)[C@@H](CC)OC(=O)[C@@H]5C)C[C@@]4(C)OC)CC3)cc2c1=O` , its MIC was 4 µg/mL

---

Test system: Haemophilus influenzae
method: Antibacterial activity against Haemophilus influenzae ATCC 49247 by broth microdilution technique
Type: functional
measurement.label: MIC

Reported MIC ( `CC[C@H]1OC(=O)[C@H](C)[C@@H](O[C@H]2C[C@@](C)(OC)[C@@H](OCCCN3CCN(CCCc4ccc5c(c4)c(=O)c(C(=O)O)cn5CC)CC3)[C@H](C)O2)[C@H](C)[C@@H](O[C@@H]2O[C@H](C)C[C@H](N(C)C)[C@H]2O)[C@](C)(O)C[C@@H](C)CN(C)[C@H](C)[C@@H](O)[C@]1(C)O` ) = 32 µg/mL

Query `CCOC(=O)c1cn(C2CC2)c2ccc(CCCN3CCN(CCC(=O)O[C@H]4[C@H](C)O[C@@H](O[C@H]5[C@H](C)[C@@H](O[C@@H]6O[C@H](C)C[C@H](N(C)C)[C@H]6O)[C@](C)(OC)C[C@@H](C)C(=O)[C@H](C)[C@@H](O)[C@](C)(O)[C@@H](CC)OC(=O)[C@@H]5C)C[C@@]4(C)OC)CC3)cc2c1=O` yields MIC of > 64 µg/mL

# compound `CCOC(=O)c1cn(CC)c2ccc(C#CCN3CCNCC3)cc2c1=O` ; its MIC = > 64 µg/mL
